Measured values drawn from the Kinase Knowledgebase extract (Sharma et al. 2016) for this set.

Would you kindly list Ki for each of these compounds?
# test system: UniProt P24941

Returns the measured Ki for the input compound. Input: CC(=O)N1CCCN(c2cc(-n3cnc(Nc4ccccc4)n3)ncn2)CC1
> 1000 nM

Consider the compound CCOC(=O)c1ccc(Nc2ncn(-c3ccnc(N4C[C@@H](C)N(C(C)=O)[C@@H](C)C4)c3)n2)cc1 and give its measured Ki.
500 to 1000 nM

# Ki lookup, item CC(=O)N1[C@H](C)CN(c2cc(-n3cnc(Nc4ccc(N)cc4)n3)ccn2)C[C@@H]1C
< 500 nM

Which value of Ki has been reported for CC(=O)N1[C@H](C)CN(c2cc(-n3cnc(Nc4ccc(NC(=O)OCC(C)C)cc4)n3)ccn2)C[C@@H]1C in the records?
500 to 1000 nM

Entry under review: CN(CCO)c1cc(-n2cnc(Nc3ccccc3)n2)ccn1 . Reported Ki?
< 500 nM

Give its Ki value. Item: CC(=O)N1[C@H](C)CN(c2cc(-n3cnc(Nc4ccc(NC(=O)OC(C)C)cc4)n3)ccn2)C[C@@H]1C
500 to 1000 nM

Reported Ki for COC(=O)Nc1ccc(Nc2ncn(-c3ccnc(N4C[C@@H](C)N(C(C)=O)[C@@H](C)C4)c3)n2)cc1 : what is it?
< 500 nM

Name the reported Ki value associated with the compound CCOC(=O)c1ccc(Nc2ncn(-c3ccnc(N4CCCN(C(C)=O)CC4)c3)n2)cc1
> 1000 nM

Which Ki is reported for this compound? CC1CCCN1c1cc(-n2cnc(Nc3ccccc3)n2)ccn1 (centres undefined)
< 500 nM

Which Ki is listed for CCOc1cccc(Nc2ncn(-c3ccccc3)n2)c1 ?
> 1000 nM

What value of Ki has been recorded for this entry: CCCNC(=O)Nc1ccc(Nc2ncn(-c3ccnc(N4C[C@@H](C)N(C(C)=O)[C@@H](C)C4)c3)n2)cc1
< 500 nM

# Ki lookup, item c1ccc(-n2cnc(Nc3ccc(N4CCOCC4)cc3)n2)cc1
> 1000 nM

If you can, please state the reported Ki value of O=C(CCc1ccccc1)Nc1cc(-n2cnc(Nc3ccccc3)n2)ccn1 .
500 to 1000 nM

Given the compound CC(=O)N1[C@H](C)CN(c2cc(-n3cnc(Nc4ccc(NC(=O)N(C)C)cc4)n3)ccn2)C[C@@H]1C , what is its reported Ki?
> 1000 nM

Returns the measured Ki for the input compound. Input: CN(Cc1cccnc1)c1cc(-n2cnc(Nc3ccccc3)n2)ccn1
< 500 nM

Suppose we examine the compound CC(=O)N1[C@H](C)CN(c2cc(-n3cnc(Nc4ccccc4)n3)ncn2)C[C@@H]1C ; what Ki value has been reported?
> 1000 nM

Quick check: Ki of CCCN(CCO)c1cc(-n2cnc(Nc3ccccc3)n2)ccn1 ?
< 500 nM

Reported Ki, compound CC(C)(C)CC(=O)Nc1cc(-n2cnc(Nc3ccccc3)n2)ccn1 : ____
> 1000 nM

For the compound CCN(CC)CCNc1cc(-n2cnc(Nc3ccccc3)n2)ccn1 , what Ki is on record?
> 1000 nM

Quick one: Ki of CC(=O)N1[C@H](C)CN(c2cc(-n3cnc(Nc4ccc(N5CCN(S(=O)(=O)c6ccc(C)cc6)CC5)cc4)n3)ccn2)C[C@@H]1C ?
500 to 1000 nM

Reported Ki, compound C[C@@H]1CN(c2cc(-n3cnc(Nc4ccccc4)n3)ncn2)C[C@H](C)N1 : ____
> 1000 nM

What value of measured Ki is listed for CCOC(=O)Nc1ccc(Nc2ncn(-c3ccnc(N4C[C@@H](C)N(C(C)=O)[C@@H](C)C4)c3)n2)cc1 ?
< 500 nM

Would you kindly share the measured Ki for O=C(Cc1ccccc1)Nc1cc(-n2cnc(Nc3ccccc3)n2)ccn1 ?
< 500 nM

Recorded Ki for COCC(=O)N1CCCN(c2cc(-n3cnc(Nc4ccccc4)n3)ccn2)CC1 , please?
> 1000 nM

Give the measured Ki of O=C(Nc1cc(-n2cnc(Nc3ccccc3)n2)ccn1)C1CCCCC1 .
500 to 1000 nM

Name the reported Ki value associated with the compound c1ccc(-n2cnc(Nc3ccc(N4CCOCC4)nc3)n2)cc1
> 1000 nM

Give the measured Ki of CC(=O)N1CCCN(c2cc(-n3cnc(Nc4ccccc4)n3)ccn2)CC1 .
500 to 1000 nM

# get_value(readout='Ki', item= c1ccc(Nc2ncn(-c3ccnc(N4CCCCC4)c3)n2)cc1 )
< 500 nM

Tell me the measured Ki of N#CCC(=O)N1CCCN(c2cc(-n3cnc(Nc4ccccc4)n3)ccn2)CC1 , please.
< 500 nM
